Target: Serine/threonine-protein kinase Nek7 (Homo sapiens)
Test: Inhibition of NEK7 (unknown origin) at 1 uM relative to control
assay.readout: inhibition (%)
Expressed in %, but write only the number.

Quick note, inhibition for Nc1ncc(-c2cccnc2)c2scc(-c3ccc4c(c3)CCN4C(=O)Cc3ccccc3)c12 landed at 19

Quick note, inhibition for Nc1nccc2scc(-c3ccc4c(c3)CCN4C(=O)Cc3cc(F)ccc3F)c12 landed at 0

Quick note, inhibition for O=C1NC(=O)C(c2ccccc2Cl)=C1Nc1cccc(Cl)c1 landed at 16

Quick note, inhibition for CC(C)c1nc(-c2cccc(NS(=O)(=O)c3ccccc3)c2)c(-c2ccnc(Nc3ccc4c(c3)CN(C)CC4)n2)s1 landed at 100

Quick note, inhibition for Nc1nccc2scc(-c3ccc4c(c3)CCN4C(=O)Cc3ccccc3)c12 landed at 0

Quick note, inhibition for Cn1cc(-c2ccc3c(c2)CCN3C(=O)Cc2cccc(Cl)c2)c2c(N)ncnc21 landed at 0

Quick note, inhibition for COc1cc(Nc2ncc3c(C)nc(-c4cc5ccccc5[nH]4)n3n2)cc(OC)c1OC landed at 70

Quick note, inhibition for c1ccc(-c2ccnc3[nH]ccc23)cc1 landed at 0

Quick note, inhibition for Cc1ccccc1CC(=O)N1CCc2cc(-c3cn(C)c4ncnc(N)c34)ccc21 landed at 0

Quick note, inhibition for Cn1cc(-c2ccc3c(c2)CCN3C(=O)Cc2ccccc2Cl)c2c(N)ncnc21 landed at 17

Quick note, inhibition for COc1ccc(Nc2ncc(C#N)c(Nc3ccccc3C(N)=O)n2)cc1N1CCN(C)CC1 landed at 2.6

Quick note, inhibition for COc1cccc(C2=C(Nc3cccc(O)c3)C(=O)NC2=O)c1 landed at 7

Quick note, inhibition for Cn1cc(-c2ccc3c(c2)CCN3C(=O)Cc2cc(F)cc(C(F)(F)F)c2)c2c(N)ncnc21 landed at 0
